Attribution: the supplement of paper PMC9170038

- System: MS2 coat protein
- TEST SUMMARY: apparent KD of MS2 coat protein; designed switch direction (-1 OFF switch, 1 ON switch): -1; higher = weaker reporter binding
- RUN CONDITIONS: input ligand: FMN 200 uM

{"columns": ["SEQUENCE STRING", "apparent KD of MS2 coat protein (nM)"],
 "data": [
  ["ACAGUGUUAGGAUAUCUGAGAAUUAGUCUCGACUAGUCGAAGGAGAAGGAACAUGAGGAUCACCCAUGUAGAUC [EX4 #76] (Eterna round: R97, puzzle: Exclusion 4)", 295],
  ["UCCUCCUAAGGAUAUGCGUCGGUUGAACUAUGCUAAAAGGGACAUGAGGAUCACCCAUGUAGAAGGUAGGGCAG [Eternabot (L2) Solution 86] (Eterna round: R97, puzzle: Exclusion 2)", 72.5],
  ["UGAUCUUUUGUUAGGAUAUGCUGUUUUUUUUUUCAGCAGAAGGGACAUGAGGAUCACCCAUGUUUUGUCAUAAA [Magic-06] (Eterna round: R96, puzzle: Brourd's mod of Exclusion 4)", 45],
  ["UCACAGUGAGGAUAUUUAAAAUCGGAACCAGUUACCCGGAUGAAGAAGGCACAUGAGGAUCACCCAUGUGGACG [Eternabot (L2) Solution 14] (Eterna round: R97, puzzle: Exclusion 4)", 16.7],
  ["ACAUGAGGAUCACCCAUGUCAGGCAGGUCCACUCCGGCUGUUGAGGAUAUAGCCCGGUAUCCGCGCUAGAAGGUGAGGGCCGGC [Aenatbe mod 26] (Eterna round: R96, puzzle: Exclusion NG 3)", 15.3],
  ["AGUACUCUCACGAAAGUGAGAGUACAAAAAGCAAGUGAAACAUGAGGAUCACCCAUGUCCUCAUUUGCUCGUCUUAU [Mat - Sensor v2 -ver2- JL mod - D88] (Eterna round: R96, puzzle: Sensor v2, turn-off variant 2)", 11.8],
  ["CCUGAGGUUUGGUAGAAAACAUGAGGAUCACCCAUGUAUGUGCAGGAUAUCGACCGGCUCGCUGCCGAGAAGGGCAUCUACAUA [Eternabot solution 31] (Eterna round: R96, puzzle: Exclusion NG 3)", 45.4],
  ["ACGGUUCUCCUCAGCUACAUGAGGAUCACCCAUGUGACUGAGCAGGAUAUACAUAAGUGCGAAAAGUAGAAGGGCUCGGCGCAC [Xeora] (Eterna round: R96, puzzle: Exclusion NG 3)", 12.2],
  ["UCUUACUGAGGAUAUACAUAGAUUUACAUGAGGAUCACCCAUGUUCCUCUAUGUAUAAAUGUAGAAGGCAGAAGAA [Mat - Exclusion 5 - JL Mod - D53] (Eterna round: R97, puzzle: Exclusion 5)", 82.6]
]}
